Target: T1, human CXCR2 (human, UniProt P25025 1-360)
T1 sequence: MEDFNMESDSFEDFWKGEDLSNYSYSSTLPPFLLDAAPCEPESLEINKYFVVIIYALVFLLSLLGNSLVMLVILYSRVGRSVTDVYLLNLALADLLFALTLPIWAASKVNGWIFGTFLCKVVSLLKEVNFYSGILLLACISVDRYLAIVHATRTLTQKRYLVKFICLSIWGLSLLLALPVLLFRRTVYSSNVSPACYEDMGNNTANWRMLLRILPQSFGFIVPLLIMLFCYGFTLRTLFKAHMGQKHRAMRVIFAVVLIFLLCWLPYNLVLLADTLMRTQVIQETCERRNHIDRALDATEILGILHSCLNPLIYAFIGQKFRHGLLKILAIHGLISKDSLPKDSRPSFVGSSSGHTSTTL
Assay: cell-based or functional assay
readout.type: CXCL1 IC50, Tango assay (nM)
Answer format: numeric, nM implied, no suffix.

Sample answers from the record:
BKO-4A8-103c (antibody, human IgG4 S228P, lambda, V domains shown, IgG4 S228P, lambda) VH: EVQLLESGGGLVQPGGSLRLSCAASGFTFSSSTQSWVRQPPGKGLEWVSAISGSGGSTYYADSVKGRFTISRDNSKNTLYLQMNSLRAEDTAVYYCAIQMGYWGQGILVTVSS VL: QSALTQPPSASGSPGQSVTISCIGTSSDVGGYNYVSWYQQHPGKAPKLMIYEVSKRPSGVPDRFSGSKSGNTASLTVSGLQAEDEADYYCSSYAGSNNFGVFGGGTKLTVLG; 2.4
BKO-4A8-105c (antibody, human IgG4 S228P, lambda, V domains shown, IgG4 S228P, lambda) VH: EVQLLESGGGLVQPGGSLRLSCAASGFTFSSSTQSWVRQPPGKGLEWVSAISGSGGSTYYADSVKGRFTISRDNSKNTLYLQMNSLRAEDTAVYYCAIQAGYWGQGILVTVSS VL: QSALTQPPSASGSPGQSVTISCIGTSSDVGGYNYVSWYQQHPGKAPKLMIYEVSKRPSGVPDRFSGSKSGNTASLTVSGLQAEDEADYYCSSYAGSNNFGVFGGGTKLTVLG; 4
BKO-4A8-101c (antibody, human IgG4 S228P, lambda, V domains shown) VH: EVQLLESGGGLVQPGGSLRLSCAASGFTFSSSTQSWVRQPPGKGLEWVSAISGRGRSTYYADSVKGRFTISRDNSKNTLYLQMNSLRAEDTAVYYCAIQAGYWGQGILVTVSS VL: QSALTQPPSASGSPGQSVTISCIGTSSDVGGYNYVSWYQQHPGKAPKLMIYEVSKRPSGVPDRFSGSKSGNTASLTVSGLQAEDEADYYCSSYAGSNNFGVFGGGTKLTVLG; 0.63

Kindly review the next binder as well.
The binder listed as BKO-4A8-104c (antibody, human IgG4 S228P, lambda, V domains shown, IgG4 S228P, lambda) VH: EVQLLESGGGLVQPGGSLRLSCAASGFTFSSSTQSWVRQPPGKGLEWVSAISGSGGSTYYADSVKGRFTISRDNSKNTLYLQMNSLRAEDTAVYYCAIQKGYWGQGILVTVSS VL: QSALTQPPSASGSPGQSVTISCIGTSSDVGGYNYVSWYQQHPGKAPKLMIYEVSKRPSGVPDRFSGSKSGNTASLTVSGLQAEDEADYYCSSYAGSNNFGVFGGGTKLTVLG shows CXCL1 IC50, Tango assay equal to 2.17
